System Tested: FGFR2 (Homo sapiens, UniProt P21802)
Sequence (P21802 22-821): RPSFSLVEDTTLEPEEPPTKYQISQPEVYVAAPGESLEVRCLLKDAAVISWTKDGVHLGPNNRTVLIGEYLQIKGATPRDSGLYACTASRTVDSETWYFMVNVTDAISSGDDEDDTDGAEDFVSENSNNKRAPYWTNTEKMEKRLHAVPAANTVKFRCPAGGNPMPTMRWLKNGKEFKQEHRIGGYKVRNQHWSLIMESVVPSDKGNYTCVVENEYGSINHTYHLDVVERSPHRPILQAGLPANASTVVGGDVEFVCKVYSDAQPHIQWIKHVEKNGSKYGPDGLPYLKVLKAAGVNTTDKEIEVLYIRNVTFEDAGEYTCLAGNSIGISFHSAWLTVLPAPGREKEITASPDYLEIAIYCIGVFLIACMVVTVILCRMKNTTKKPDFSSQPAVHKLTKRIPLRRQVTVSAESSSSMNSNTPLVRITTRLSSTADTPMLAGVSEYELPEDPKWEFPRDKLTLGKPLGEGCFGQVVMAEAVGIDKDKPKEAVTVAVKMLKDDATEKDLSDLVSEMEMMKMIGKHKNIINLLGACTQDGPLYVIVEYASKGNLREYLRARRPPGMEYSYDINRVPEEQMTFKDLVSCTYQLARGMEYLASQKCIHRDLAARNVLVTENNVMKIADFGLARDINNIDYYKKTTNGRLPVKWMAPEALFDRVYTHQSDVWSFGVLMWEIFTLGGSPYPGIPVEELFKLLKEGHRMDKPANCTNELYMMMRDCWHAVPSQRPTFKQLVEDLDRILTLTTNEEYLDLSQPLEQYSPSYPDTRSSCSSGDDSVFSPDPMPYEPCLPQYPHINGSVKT
Reported Endpoint: pIC50
The read-out pIC50 is expressed as -log10 of concentration in moles per litre.

// returns reported pIC50 for input CCN1CCN(c2ccc(Nc3cc(-c4cccnc4Nc4c(Cl)c(OC)cc(OC)c4Cl)ncn3)cc2)CC1 [Compound 1]
8.22
